- Tested on: Rattus norvegicus
- test.method.notes: Biodistribution in lungs of immature female rat after 12 hour administration of 3 micro Ci (111 kBq) in the absence of 60 microg estradiol
- Format: ADME, organism-based, Lung
- setup.conditions: in vivo
ID/g reference

Here's what some known entries look like.
1. C[C@@H]1Cc2cc(O)c(F)cc2[C@H]2CC[C@@]3(C)[C@@H](CC[C@@]3(O)/C=C\I)[C@H]12: 0.25%
2. CO[C@H]1C[C@@]2(C)[C@@H](CC[C@@]2(O)/C=C\I)[C@@H]2CCc3c(ccc(O)c3F)[C@H]21: 0.37%

Turning now to a further molecule:
What ID/g value was documented for this molecule, `C[C@@H]1Cc2c(ccc(O)c2F)[C@H]2CC[C@@]3(C)[C@@H](CC[C@@]3(O)/C=C\I)[C@H]12` ?
0.24%

----------
- Test system: Rattus norvegicus
- test.method.notes: Biodistribution in liver of immature female rat after 3 hour administration of 3 micro Ci (111 kBq) in the absence of 60 microg estradiol
- Assay type: ADME, organism-based
- setup.conditions: in vivo
measurement.label: ID/g (%)
Entry rule: numbers only, all in %.

1. C[C@@H]1Cc2cc(O)c(F)cc2[C@H]2CC[C@@]3(C)[C@@H](CC[C@@]3(O)/C=C/I)[C@H]12: 1.53
2. C[C@]12CC[C@@H]3c4ccc(O)c(F)c4CC[C@H]3[C@@H]1CC[C@@]2(O)/C=C\I: 1.95
3. CO[C@H]1C[C@@]2(C)[C@@H](CC[C@@]2(O)/C=C\I)[C@@H]2CCc3c(ccc(O)c3F)[C@H]21: 1.21

Kindly consider the entry below.
Would you mind telling me what ID/g value was observed for `C[C@@H]1Cc2c(ccc(O)c2F)[C@H]2CC[C@@]3(C)[C@@H](CC[C@@]3(O)/C=C/I)[C@H]12` ?
3.44

----------
- Test system: Rattus norvegicus
- test.method.notes: Biodistribution in spleen of immature female rat after 12 hour administration of 3 micro Ci (111 kBq) in the absence of 60 microg estradiol
- Type: ADME, organism-based
- setup.conditions: in vivo
Would you mind labelling by ID/g? At or over 0.2% is Yes, under is No.

Look over these answered cases.
1. C[C@@H]1Cc2c(ccc(O)c2F)[C@H]2CC[C@@]3(C)[C@@H](CC[C@@]3(O)/C=C\I)[C@H]12: Yes
2. C[C@@H]1Cc2c(ccc(O)c2F)[C@H]2CC[C@@]3(C)[C@@H](CC[C@@]3(O)/C=C/I)[C@H]12: No
3. C[C@]12CC[C@@H]3c4ccc(O)c(F)c4CC[C@H]3[C@@H]1CC[C@@]2(O)/C=C/I: No
4. C[C@]12CC[C@@H]3c4cc(F)c(O)cc4CC[C@H]3[C@@H]1CC[C@@]2(O)/C=C/I: No
5. C[C@@H]1Cc2cc(O)c(F)cc2[C@H]2CC[C@@]3(C)[C@@H](CC[C@@]3(O)/C=C\I)[C@H]12: Yes

Say whether `C[C@@H]1Cc2cc(O)c(F)cc2[C@H]2CC[C@@]3(C)[C@@H](CC[C@@]3(O)/C=C/I)[C@H]12` shows ID/g of 0.2% or more.
No

Hello, I need to know if `CO[C@H]1C[C@@]2(C)[C@@H](CC[C@@]2(O)/C=C/I)[C@@H]2CCc3cc(O)c(F)cc3[C@H]21` has measured ID/g not below 0.2%. Thanks!
No

Is reported ID/g greater than or equal to 0.2% here: `C[C@]12CC[C@@H]3c4cc(F)c(O)cc4CC[C@H]3[C@@H]1CC[C@@]2(O)/C=C\I`
No

Quick check: does `CO[C@H]1C[C@@]2(C)[C@@H](CC[C@@]2(O)/C=C\I)[C@@H]2CCc3c(ccc(O)c3F)[C@H]21` have ID/g greater than or equal to 0.2%?
Yes

Say whether `C[C@]12CC[C@@H]3c4ccc(O)c(F)c4CC[C@H]3[C@@H]1CC[C@@]2(O)/C=C\I` shows ID/g of 0.2% or more.
Yes
